Numbers sourced from patent US11813306B2.

- ASSAYED_SYSTEM: human PCSK9 (Homo sapiens)
- Sequence (Q8NBP7 153-692): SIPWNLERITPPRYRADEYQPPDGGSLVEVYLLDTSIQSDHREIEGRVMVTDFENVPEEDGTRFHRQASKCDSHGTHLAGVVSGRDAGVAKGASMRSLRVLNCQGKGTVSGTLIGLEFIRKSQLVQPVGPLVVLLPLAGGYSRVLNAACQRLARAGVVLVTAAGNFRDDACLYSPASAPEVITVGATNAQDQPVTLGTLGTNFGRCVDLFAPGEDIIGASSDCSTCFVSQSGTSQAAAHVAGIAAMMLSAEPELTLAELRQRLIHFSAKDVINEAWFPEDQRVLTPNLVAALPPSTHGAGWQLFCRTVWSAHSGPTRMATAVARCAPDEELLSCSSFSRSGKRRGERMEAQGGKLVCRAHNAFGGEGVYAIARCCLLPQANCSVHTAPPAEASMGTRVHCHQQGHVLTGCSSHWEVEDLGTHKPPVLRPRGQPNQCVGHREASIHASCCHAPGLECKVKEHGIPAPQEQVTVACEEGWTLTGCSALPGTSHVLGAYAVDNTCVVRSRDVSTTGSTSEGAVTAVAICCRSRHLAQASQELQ
- Sequence (Q8NBP7 31-152 partner limits assumed): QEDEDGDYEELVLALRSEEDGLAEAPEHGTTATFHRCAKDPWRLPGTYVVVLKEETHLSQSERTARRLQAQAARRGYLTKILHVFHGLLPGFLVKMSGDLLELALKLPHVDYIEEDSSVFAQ
- ASSAY_REMARKS: PCSK9 ligand binding assay (TR-FRET): interference with binding of human PCSK9 to human LDLR
- TEST_SETTINGS: efficacy (Amax), 100% = 1 uM unlabeled human PCSK9, 0% = DMSO
Exercise: state measured Max % inhibition for each of the compounds provided.
The response must be a number in % with no trailing unit.

Please give the measured Max % inhibition for this compound: COC[C@@H]1NC(=O)[C@H](C)N(Cc2ncc(Cl)cc2Oc2ccc(-c3cnc(CN(C)C)n3C)cc2)C(=O)C[C@@H](CC(F)(F)F)C(=O)N2CCC[C@@](Cc3ccc(Cl)cc3)(C2)NC1=O [Compound 29]
119.8

Follow-up entry: Cc1cccc(C[C@@H]2CC(=O)N(Cc3c(F)cc(Cl)cc3Oc3ccc(-c4cnc(CN(C)C)n4C)cc3)[C@@H](C)C(=O)N[C@@H](CO)C(=O)N(C)[C@@]3(Cc4ccc(Cl)cc4)CCCN(C3)C2=O)n1 [Compound 170]
115.0

Follow-up entry: C[C@H]1C(=O)N[C@@H](CO)C(=O)N(C)[C@H](Cc2ccc(Cl)cc2)CN(C)C(=O)[C@H]([C@H]2CCc3ccccc32)CC(=O)N1Cc1ccc(Cl)cc1Oc1ccc(-c2cnc(CN3CCCC3)n2C)cc1.Cl [Compound 86]
99.4

Follow-up entry: CCn1c(-c2ccc(Oc3cc(Cl)cc(F)c3CN3C(=O)C[C@@H](CC(F)(F)F)C(=O)N4CCC[C@@](Cc5ccc(Cl)cc5)(C4)NC(=O)[C@H](CO)NC(=O)[C@@H]3C)cc2)cnc1CN(C)C [Compound 88]
99.0

Follow-up entry: C[C@H]1C(=O)N[C@@H](CO)C(=O)N[C@@]2(Cc3ccc(Cl)cc3)CCCN(C2)C(=O)[C@H](CC(F)(F)F)CC(=O)N1Cc1c(F)cc(Cl)cc1Oc1ccc(-c2cnc(CN3CCCC3)n2C)cc1 [Compound 15]
119.0
